Test system: S. aureus (Sau)
Type: cell-based
Conditions: Sau
No end group written: not given here.
MEASUREMENT_TYPE: MIC S. aureus (µg/mL)
Answers are plain numbers, in µg/mL.

Examples with their reported MIC S. aureus follow.
| SUBSTANCE | TARGET_ENTITY | UNIT_INFO | MIC S. aureus |
| --- | --- | --- | --- |
| VQRIIWLRVKIV-NH2 [Peptide 3023, VQRIIWLRVKIV] | S. aureus (Sau) | µg/mL | 4 |
| RRIIKILLWKLR-NH2 [Peptide 3021, RRIIKILLWKLR] | S. aureus (Sau) | µg/mL | 8 |

# map each substance to its MIC S. aureus
1. IQRWWKVWLKVI-NH2 [Peptide 3004, IQRWWKVWLKVI]
2. RRQWRGWVRIWL-NH2 [Peptide 3005, RRQWRGWVRIWL]
3. IAWQLLWGWRVR-NH2 [Peptide 3022, IAWQLLWGWRVR]
4. KKWQLLIKWKLR-NH2 [Peptide 3008, KKWQLLIKWKLR]
5. WVGVIIKWGLKL-NH2 [Peptide 3018, WVGVIIKWGLKL]

## Output
1: 8; 2: 8; 3: 8; 4: 8; 5: 2

---

System: S. aureus (MRSA SAP0017)
Format: cell-based, Staphylococcus aureus
Settings: SPOT synthesized control peptides, determined as in Table 5; Table 7
Non-standard residues stand in square brackets, D forms with d. No end group written: not given here. Agb = N=C(N)NCC[C@H](N)C(=O)O; Agp = N=C(N)NC[C@H](N)C(=O)O; Dab = NCC[C@H](N)C(=O)O
MEASUREMENT_TYPE: % Biofilm Inhibition (%)
One number for each entry, in %.

Use the examples below as a reference point.
| SUBSTANCE | READOUT_VALUE |
| --- | --- |
| C58 (V[Agp]LIVAVRIWRR) [Peptide C58] | 96 |
| C24 (LKILIAQAKKGL) [Peptide C24] | 101 |
| C23 (LKKIIVQAVGLI) [Peptide C23] | 97 |
| C50 (IKIVRRAKIIIW) [Peptide C50] | 94 |
| C97 (VRL[Dab]VAVRIWRR; not fully specified (C-terminus)) [Peptide C97] | 102 |
| C69 (V[Agb]LIVAVRIWRR) [Peptide C69] | 81 |

The substance C41 (KAVAGARQRWAL) [Peptide C41] , when measured on S. aureus (MRSA SAP0017), yielded % Biofilm Inhibition of 101

---

Tested on: Staphylococcus epidermidis (Se)
Assay type: cell-based
No end group written: not given here.
MEASUREMENT_TYPE: MBIC

Below, each entry is followed by its recorded MBIC result.
| SUBSTANCE | MBIC |
| --- | --- |
| LAGLIVKWAGVR-NH2 [Peptide 3017, LAGLIVKWAGVR] | >64 µg/mL |
| AVAKWALKLWKQ-NH2 [Peptide 3009, AVAKWALKLWKQ] | >64 µg/mL |
| AVKWLGWILAKK-NH2 [Peptide 3016, AVKWLGWILAKK] | 4 µg/mL |
| KIVIRIILQVIK-NH2 [Peptide 3015, KIVIRIILQVIK] | 2 µg/mL |
| LWQLWLKLKLKG-NH2 [Peptide 3013, LWQLWLKLKLKG] | >64 µg/mL |

Please turn your attention to the following entry.
MBIC in this record for QLARLARVVWGL-NH2 [Peptide 3010, QLARLARVVWGL] : >64 µg/mL
